Experiment: IMPase-catalyzed hydrolysis at pH 9.00 at 25 degrees Centigrade.
Assay type: ADME
Quantity measured: pKi
pKi is defined as minus the log10 of a concentration measured in mol/L.

Req: So what's the measured pKi for this one? OC1C(O)C(O)C(OP(O)(O)=S)C(O)C1O (stereo unspecified)
Resp: 2.94

----------
Experiment: Oxidation catalyzed by inositol dehydrogenase at pH 9.13.
Assay type: ADME
Quantity measured: Km (µM)
Numbers only; they are read as µM.

Req: Name the reported Km value associated with the compound "O[C@H]1[C@H](O)[C@@H](O)[C@H](O)[C@@H](O)[C@H]1O"
Resp: 580

Entry source: ChEMBL document CHEMBL1135895
